# Tested on: P. aeruginosa ATCC 27853
# Format: cell-based, Pseudomonas aeruginosa
# RECORDED CONDITIONS: ATCC 27853
# Description: MICs were determined in cation-adjusted Mueller–Hinton broth (CaMHB) by the broth micro-dilution method against ATCC strains and clinical isolates. MICs in the presence of Survanta® were determined as described above against P. aeruginosa ATCC 27853. In the 100 μL of fresh CaMHB containing polymyxins, 10% Survanta® (v/v, 2.5 mg/mL phospholipids) was added. […]
Residues, ends and D or L forms follow the SMILES beside them.
MEASURED PROPERTY: MIC, No Survanta (µg/mL)
Value expressed in µg/mL; do not type the unit.

stdin: Item under review: CCCCCCCC(=O)N[C@@H](CCN)C(=O)N[C@H](C(=O)N[C@@H](CN)C(=O)N[C@H]1CCNC(=O)[C@H]([C@@H](C)O)NC(=O)[C@H](CCN)NC(=O)[C@H](CCN)NC(=O)[C@H]([C@@H](C)O)NC(=O)[C@@H](CC(C)C)NC(=O)[C@H](CCN)NC1=O)[C@@H](C)O [Lipopeptide F251] (HELM PEPTIDE1{[CCCCCCCC(=O)[*:2]].[Dab].T.[NC[C@H](N[*:1])C(=O)[*:2]].[Dab].[Dab].[dL].T.[Dab].[Dab].T}$PEPTIDE1,PEPTIDE1,5:R3-11:R2$$$V2.0) . Reported MIC, No Survanta?
stdout: 0.5

====

# Test system: K. pneumoniae FADDI-KP032
# Format: cell-based, Klebsiella pneumoniae
# RECORDED CONDITIONS: FADDI-KP032
Residues, ends and D or L forms follow the SMILES beside them.
MEASURED PROPERTY: MIC K. pneumoniae FADDI-KP032 (µg/mL)
Value expressed in µg/mL; do not type the unit.

stdin: Item under review: CCCCCCCC(=O)N[C@@H](CCN)C(=O)N[C@H](C(=O)N[C@@H](CCN)C(=O)N[C@H]1CCNC(=O)[C@H]([C@@H](C)O)NC(=O)[C@H](CCN)NC(=O)[C@H](CCN)NC(=O)[C@H](CC(C)C)NC(=O)[C@@H]([C@H](C)O)NC(=O)[C@H](CCN)NC1=O)[C@@H](C)O [Lipopeptide F228] (HELM PEPTIDE1{[CCCCCCCC(=O)[*:2]].[Dab].T.[Dab].[Dab].[Dab].[dT].L.[Dab].[Dab].T}$PEPTIDE1,PEPTIDE1,5:R3-11:R2$$$V2.0) . Reported MIC K. pneumoniae FADDI-KP032?
stdout: 2

stdin: Here is the next compound: CC[C@@H]1NC(=O)[C@@H](CC(C)C)NC(=O)[C@H](CCN)NC(=O)[C@@H](NC(=O)[C@H](CN)NC(=O)[C@@H](NC(=O)[C@H](CCN)NC(=O)c2ccc(Cl)cc2)[C@@H](C)O)CCNC(=O)[C@H]([C@@H](C)O)NC(=O)[C@H](CCN)NC(=O)[C@H](CCN)NC1=O [Lipopeptide F378] (HELM PEPTIDE1{[O=C(c1ccc(Cl)cc1)[*:2]].[Dab].T.[NC[C@H](N[*:1])C(=O)[*:2]].[Dab].[Dab].[dL].[Abu].[Dab].[Dab].T}$PEPTIDE1,PEPTIDE1,5:R3-11:R2$$$V2.0)
stdout: 0.25

stdin: Here is the next compound: CCCCCCCC(=O)N[C@@H](CCN)C(=O)N[C@H](C(=O)N[C@H](CCN)C(=O)N[C@H]1CCNC(=O)[C@H]([C@@H](C)O)NC(=O)[C@H](CCN)NC(=O)[C@H](CCN)NC(=O)[C@H]([C@@H](C)O)NC(=O)[C@@H](CC(C)C)NC(=O)[C@H](CCN)NC1=O)[C@@H](C)O [Lipopeptide F085] (HELM PEPTIDE1{[CCCCCCCC(=O)[*:2]].[Dab].T.[NCC[C@@H](N[*:1])C(=O)[*:2]].[Dab].[Dab].[dL].T.[Dab].[Dab].T}$PEPTIDE1,PEPTIDE1,5:R3-11:R2$$$V2.0)
stdout: 0.25
